- run-description: Test of in vivo distribution of F-18-labeled compounds (concentration in brain, passage through blood-brain barrier)
- Set-up: unit not given here
- particulars: SD rats, 30 minutes
reported-endpoint: Concentration in brain of rats, At 30 minutes ([30 min])
// no unit, no text: just the number

Per the records, this compound ( CNc1ccc(-c2cc3ccc(OCC(O)C[18F])cc3s2)cn1 (racemic) ) has Concentration in brain of rats, At 30 minutes ([30 min]) equal to 2.2

Record CNc1ccc(-c2cc3ccc(OCCC[18F])cc3s2)cc1 [Control, reference compound] , field Concentration in brain of rats, At 30 minutes ([30 min]): 2.18

Record CNc1cccc(-c2nc3ccc(OCC(O)C[18F])cc3s2)c1 (racemic) . Reported Concentration in brain of rats, At 30 minutes ([30 min]): 2.9

Concentration in brain of rats, At 30 minutes ([30 min]) for CNc1ccc(-c2nc3ccc(OCC(O)C[18F])cc3s2)cn1 (racemic) is 1.0
